B1: TRIM9 (parent)
chain: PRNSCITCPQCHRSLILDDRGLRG

Variants of: B1
Experiment: protein stability index of a GFP-peptide fusion (GPS, HEK-293T) (PSI 1-6); higher = more stable;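 also: lentivirally expressed fusions sorted by FACS into six bins by GFP to DsRed ratio, PSI derived from sequencing read proportions per bin multiplied by bin number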
Details: c terminus: a fixed tail appended
So I've got a bunch of variants here, and I need their protein stability index values.
Number only, please.

Challenge: Can you look up the measured protein stability index of I6A for me?
Response given: 1.48

Challenge: Also, P9T please.
Response given: 1.83

Challenge: Check C8Y too.
Response given: 2.54

Challenge: Request: R13D
Response given: 3.33

Challenge: Request: P1I
Response given: 2.33

Challenge: What about this variant? I6Q
Response given: 2.16

Challenge: Same lookup for L22R , please.
Response given: 2.84

Challenge: Another variant to look at: C5N
Response given: 1.99

Challenge: For S4G then?
Response given: 1.76

Challenge: Proceed to R2G
Response given: 2.82

Challenge: Next up: R20I
Response given: 1.85

Challenge: Quick one: C5D
Response given: 2.11

Challenge: Similarly, H12D ?
Response given: 2.28

Challenge: Continue with D18W
Response given: 1.68
